# System: Candida albicans
# method-description: Antimicrobial activity against Candida albicans ATCC 10231 assessed as inhibition zone after 24 hrs by agar well diffusion method; also: test concentration or dose not given here
# Format: functional
readout-name: diameter of the inhibition zone (DIZ)

Data request: Need diameter of the inhibition zone (DIZ) of `CCOC(=O)c1c(N)sc(/N=C/c2ccc(OC)cc2)c1C(=O)OCC` , thanks.
Data returned: 9 mm

Data request: Need diameter of the inhibition zone (DIZ) of `CCOC(=O)c1c(N)sc(/N=C/c2ccco2)c1C(=O)OCC` , thanks.
Data returned: <5.5 mm

Data request: Need diameter of the inhibition zone (DIZ) of `CCOC(=O)c1c(N)sc(/N=C/c2ccc(Cl)cc2)c1C(=O)OCC` , thanks.
Data returned: <5.5 mm

Data request: Need diameter of the inhibition zone (DIZ) of `CCOC(=O)c1c(N)sc(/N=C/c2ccncc2)c1C(=O)OCC` , thanks.
Data returned: 7 mm

Data request: Need diameter of the inhibition zone (DIZ) of `CCOC(=O)c1c(N)sc(/N=C/c2ccc(Br)cc2)c1C(=O)OCC` , thanks.
Data returned: <5.5 mm

Data request: Need diameter of the inhibition zone (DIZ) of `CCOC(=O)c1c(N)sc(N)c1C(=O)OCC` , thanks.
Data returned: <5.5 mm

Data request: Need diameter of the inhibition zone (DIZ) of `CCOC(=O)c1c(N)sc(/N=C/c2ccc([N+](=O)[O-])cc2)c1C(=O)OCC` , thanks.
Data returned: <5.5 mm

Data request: Need diameter of the inhibition zone (DIZ) of `CCOC(=O)c1c(N)sc(/N=C/c2ccccc2)c1C(=O)OCC` , thanks.
Data returned: 8 mm

Data request: Need diameter of the inhibition zone (DIZ) of `CCOC(=O)c1c(N)sc(/N=C/c2ccc(C)cc2)c1C(=O)OCC` , thanks.
Data returned: 8 mm

Data request: Need diameter of the inhibition zone (DIZ) of `CCOC(=O)c1c(N)sc(/N=C/c2cccs2)c1C(=O)OCC` , thanks.
Data returned: <5.5 mm

Data request: Need diameter of the inhibition zone (DIZ) of `CCOC(=O)c1c(N)sc(/N=C/c2ccc([N+](=O)[O-])o2)c1C(=O)OCC` , thanks.
Data returned: >22 mm
